Data provenance: patent US7553969B1

Where a SMILES comes first, the peptide text is derived from it. [ ]: non-standard residue; d: D form. NMeTyr(3-tBu) = CN[C@@H](Cc1ccc(O)c(C(C)(C)C)c1)C(=O)O; Tyr(3-tBu) = CC(C)(C)c1cc(C[C@H](N)C(=O)O)ccc1O; NMePhe(4-F) = CN[C@@H](Cc1ccc(F)cc1)C(=O)O; Phe(4-F) = N[C@@H](Cc1ccc(F)cc1)C(=O)O; NMeChg = CN[C@H](C(=O)O)C1CCCCC1; NMeV = CN[C@H](C(=O)O)C(C)C
Assay read-out pIC50; system under study: motilin receptor (Oryctolagus cuniculus, UniProt G1T803).
Sequence (G1T803 1-400): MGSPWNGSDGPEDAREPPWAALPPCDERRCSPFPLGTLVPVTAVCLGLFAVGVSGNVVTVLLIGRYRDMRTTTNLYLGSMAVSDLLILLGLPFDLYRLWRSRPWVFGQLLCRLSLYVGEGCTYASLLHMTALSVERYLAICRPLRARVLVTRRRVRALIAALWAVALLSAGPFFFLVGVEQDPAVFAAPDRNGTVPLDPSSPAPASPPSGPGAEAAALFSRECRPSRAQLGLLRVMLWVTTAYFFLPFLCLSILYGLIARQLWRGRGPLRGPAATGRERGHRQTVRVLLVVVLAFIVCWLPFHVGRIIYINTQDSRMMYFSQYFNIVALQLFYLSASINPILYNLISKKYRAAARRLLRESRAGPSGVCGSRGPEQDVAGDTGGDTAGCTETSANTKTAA
// field semantics: pIC50 = negative decimal log of concentration (mol/L)

Request: pIC50, test system motilin receptor (Oryctolagus cuniculus, UniProt G1T803), entry CN(C(=O)[C@@H](N)Cc1ccc(F)cc1)[C@H](C(=O)N(C)[C@@H](Cc1ccc(O)c(C(C)(C)C)c1)C(N)=O)C1CCCCC1 [Example 151, Phe(4-F)-N-Me-Chg-N-Me-Tyr(3-tBu)-NH2] (H-[Phe(4-F)]-[NMeChg]-[NMeTyr(3-tBu)]-NH2)
9.44

Under motilin receptor (Oryctolagus cuniculus, UniProt G1T803): pIC50 value of CN[C@@H](Cc1ccc(F)cc1)C(=O)N(C)[C@H](C(=O)N[C@@H](Cc1ccc(O)c(C(C)(C)C)c1)C(N)=O)C(C)C [Example 29, N-Me-Phe(4-F)-N-Me-Val-Tyr(3-tBu)-NH2] (H-[NMePhe(4-F)]-[NMeV]-[Tyr(3-tBu)]-NH2) ?
9.35

Kindly state the measured pIC50 obtained for "CCOC(=O)CN1CCN(C(=O)[C@H](Cc2ccc(O)c(C(C)(C)C)c2)N(C)C(=O)[C@H](C(C)C)N(C)C(=O)[C@@H](N)Cc2ccc(F)cc2)CC1" with motilin receptor (Oryctolagus cuniculus, UniProt G1T803).
9.15

----------
I'd appreciate it if you could supply IC50 values for the items below.
- system under test: UniProt G1T803
Where a SMILES comes first, the peptide text is derived from it. [ ]: non-standard residue; d: D form. ξ: configuration not given here. NMeTyr(3-tBu) = CN[C@@H](Cc1ccc(O)c(C(C)(C)C)c1)C(=O)O; ξNMeTyr(3-tBu) = CNC(Cc1ccc(O)c(C(C)(C)C)c1)C(=O)O; Phe(3-F) = N[C@@H](Cc1cccc(F)c1)C(=O)O; Phe(4-F) = N[C@@H](Cc1ccc(F)cc1)C(=O)O; ξW = NC(Cc1c[nH]c2ccccc12)C(=O)O; NMeL = CN[C@@H](CC(C)C)C(=O)O; NMeV = CN[C@H](C(=O)O)C(C)C
Your answer should be a plain number; it is taken to be in nM.

Find the recorded IC50 belonging to "CC(C)[C@@H](C(=O)N[C@H](CO)Cc1ccc(O)c(C(C)(C)C)c1)N(C)C(=O)[C@@H](N)Cc1ccc(F)cc1" and report it.
0.7

Report IC50 for "CCN(C(=O)[C@H](C(C)C)N(C)C(=O)[C@H](Cc1ccc(F)cc1)NC)[C@@H](Cc1ccc(O)c(C(C)(C)C)c1)C(=O)NCO" please.
1.5

For the compound CC(C)[C@@H](C(=O)N(C)C(Cc1ccc(O)c(C(C)(C)C)c1)C(N)=O)N(C)C(=O)C(N)Cc1c[nH]c2ccccc12 (some centres unmarked) [Example 183, Trp-N-Me-Val-N-Me-Tyr(3-tBu)-NH2] (H-[ξW]-[NMeV]-[ξNMeTyr(3-tBu)]-NH2) , what IC50 is on record?
0.57

Need IC50, item CC(C)C[C@@H](C(=O)N(C)[C@@H](Cc1ccc(O)c(C(C)(C)C)c1)C(N)=O)N(C)C(=O)[C@@H](N)Cc1ccc(F)cc1 [Example 144, Phe(4-F)-N-Me-Leu-N-Me-Tyr(3-tBu)-NH2] (H-[Phe(4-F)]-[NMeL]-[NMeTyr(3-tBu)]-NH2)
2

Entry CC(C)[C@@H](C(=O)N(C)[C@@H](Cc1ccc(O)c(C(C)(C)C)c1)C(N)=O)N(C)C(=O)[C@@H](N)Cc1cccc(F)c1 [Example 4, Phe(3-F)-N-Me-Val-N-Me-Tyr(3-tBu)-NH2] (H-[Phe(3-F)]-[NMeV]-[NMeTyr(3-tBu)]-NH2) : reported IC50 = ?
1.6
